- method_summary: Solubility in various vehicles (HPLC)
- Format: physicochemical
- conditions_used: WFI (5%), PG (95%); read-out: Solubility

{"columns": ["molecule", "units_symbol", "Solubility"],
 "data": [
  ["CC(C)(CNC(N)=O)NCC(O)COC(=O)c1ccccc1F (stereo not shown)", "mg/mL", 56]
]}

====

- method_summary: Solubility in various vehicles (HPLC)
- Assay type: physicochemical
- conditions_used: Water for Injection USP (WFI); read-out: Solubility

{"columns": ["compound", "Solubility"],
 "data": [
  ["CC(C)(CNC(N)=O)NCC(O)COC(=O)c1ccccc1F (stereo not shown)", "507 mg/mL"]
]}
